pEC50 overview
# system tested: human κ opioid receptors (Homo sapiens)
# Sequence (P41145 whole entry): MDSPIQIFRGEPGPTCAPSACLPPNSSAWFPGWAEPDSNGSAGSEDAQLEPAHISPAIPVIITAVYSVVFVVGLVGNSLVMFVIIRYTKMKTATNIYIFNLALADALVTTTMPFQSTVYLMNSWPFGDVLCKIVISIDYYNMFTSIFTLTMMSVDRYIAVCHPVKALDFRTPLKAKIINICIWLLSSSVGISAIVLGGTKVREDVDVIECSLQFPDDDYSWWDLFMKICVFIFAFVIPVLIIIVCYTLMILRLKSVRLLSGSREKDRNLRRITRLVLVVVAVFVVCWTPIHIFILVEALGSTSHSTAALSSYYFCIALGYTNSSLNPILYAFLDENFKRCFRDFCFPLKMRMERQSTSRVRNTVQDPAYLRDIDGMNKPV
# assay notes: Opioid receptor function test (Lance Ultra cAMP kit, agonist activity)
# experimental context: CHO cells expressing human κ opioid receptors, 10 μM forskolin, 30 minutes
pEC50: −log10 of the molar value.

{"compound": "Cc1cnn(CCN2CC[C@]34CCN(CC5(F)CC5)[C@H](Cc5ccc(O)cc53)[C@]4(O)CC2)c1", "pEC50": 10.77}
{"compound": "Oc1ccc2c(c1)[C@@]13CCN(CCc4ccccn4)CC[C@@]1(O)[C@@H](C2)N(CC1CC1)CC3", "pEC50": 10.59}
{"compound": "Cc1cnn(C2CC(N3CC[C@]45CCN(CC6CC6)[C@H](Cc6ccc(O)cc64)[C@]5(O)CC3)C2)c1 (single isomer, unassigned) [Example 227 (II)]", "pEC50": 9.80}
{"compound": "Cc1cnn(CCN2CC[C@]34CCN(CC5CC5)[C@H](Cc5ccc(O)cc53)[C@]4(O)CC2C)c1 (stereo partly shown)", "pEC50": 10.15}
{"compound": "Oc1ccc2c(c1)[C@@]13CCN(CCCn4cc(C(F)(F)F)cn4)CC[C@@]1(O)[C@@H](C2)N(CC1CC1)CC3", "pEC50": 10.62}
{"compound": "CC(C)c1cnn(CCN2CC[C@]34CCN(CC5CC5)[C@H](Cc5ccc(O)cc53)[C@]4(O)CC2)c1", "pEC50": 10.64}
{"compound": "Cn1nc(CCN2CC[C@]34CCN(CC5CC5)[C@H](Cc5ccc(O)cc53)[C@]4(O)CC2)cc1C(F)(F)F", "pEC50": 10.29}

###

# system tested: human κ opioid receptors (Homo sapiens)
# assay notes: Opioid receptor function test (Lance Ultra cAMP kit, agonist activity)
# experimental context: CHO cells expressing human κ opioid receptors, 10 μM forskolin, 30 minutes
# t = EC50 below 0.06 nM (exclusive); f = EC50 at/above 0.06 nM

{"sample smiles": "Cc1cc2c(cc1O)[C@@]13CCN(C(=O)Cc4n[nH]c5ccccc45)CC[C@@]1(O)[C@@H](C2)N(CC1CC1)CC3", "category label": "f"}
{"sample smiles": "COc1c(O)ccc2c1[C@@]13CCN(CCn4cc(C)cn4)CC[C@@]1(O)[C@@H](C2)N(CC1CC1)CC3", "category label": "f"}
{"sample smiles": "O=C(Cc1n[nH]c2ccccc12)N1CC[C@]23CCN(CC4CC4)[C@H](Cc4ccc(O)cc42)[C@]3(O)CC1", "category label": "t"}
{"sample smiles": "NC(=O)c1ccc2c(c1)[C@@]13CCN(C(=O)CCn4cc(C(F)(F)F)cn4)CC[C@@]1(O)[C@@H](C2)N(CC1CC1)CC3", "category label": "f"}
{"sample smiles": "Oc1ccc2c(c1)[C@@]13CCN(CCc4ccco4)CC[C@@]1(O)[C@@H](C2)N(CC1CC1)CC3", "category label": "f"}
{"sample smiles": "Oc1ccc2c(c1)[C@@]13CCN(CCn4ncc5ccccc54)CC[C@@]1(O)[C@@H](C2)N(CC1CC1)CC3", "category label": "f"}
{"sample smiles": "Oc1ccc2c(c1)[C@@]13CCN(CCc4ccsn4)CC[C@@]1(O)[C@@H](C2)N(CC1CC1)CC3", "category label": "t"}
{"sample smiles": "Cc1cn(CC(=O)N2CC[C@]34CCN(CC5CC5)[C@H](Cc5ccc(O)cc53)[C@]4(O)CC2)nc1C(F)(F)F", "category label": "f"}
{"sample smiles": "CCc1cc(CC(=O)N2CC[C@]34CCN(CC5CC5)[C@H](Cc5ccc(O)cc53)[C@]4(O)CC2)no1", "category label": "f"}
{"sample smiles": "Cc1cnn(CCN2CC[C@]34CCN(CC5CC5)[C@H](Cc5cc(Cl)c(O)cc53)[C@]4(O)CC2)c1", "category label": "f"}
{"sample smiles": "O=C(Cn1cc(C2CC2)cn1)N1CC[C@]23CCN(CC4CC4)[C@H](Cc4ccc(O)cc42)[C@]3(O)CC1", "category label": "t"}
{"sample smiles": "CCc1cnn(CCN2CC[C@]34CCN(CC5CC5)[C@H](Cc5ccc(O)cc53)[C@]4(O)CC2)c1", "category label": "t"}
{"sample smiles": "Cc1ccn(CCN2CC[C@]34CCN(CC5CC5)[C@H](Cc5ccc(O)cc53)[C@]4(O)CC2)n1", "category label": "f"}
{"sample smiles": "Cc1cnn(C[C@@H](C)N2CC[C@]34CCN(CC5CC5)[C@H](Cc5ccc(O)cc53)[C@]4(O)CC2)c1", "category label": "t"}
